Catalogue of molecules with associated IC50
targetOfAssay: K103NNY181C mutant reverse transcriptase (Human immunodeficiency virus type 1 group M subtype B, UniProt P04585, K690N/Y768C)
Construct: mutations that occur in the reverse transcriptase segment of the pol gene
runDescription: Reverse transcriptase enzymatic assay (PicoGreen), K103N/Y181C mutant RT
Type: biochemical, HIV-1
reportedConditions: IC50 mut, K103N/Y181C mutant reverse transcriptase, enzymatic assay of Example 24

- molecule: "CC(C)(C#Cc1ccc(NC(=O)CSc2nnnn2-c2ccc(C3CC3)cc2Cl)c(Cl)c1)NC(=O)CNc1cc[n+]([O-])cc1 [Compound 4193]"
  IC50: "29 nM"
- molecule: "CC(C)(C#Cc1ccc(NC(=O)CSc2nnnn2-c2ccc(C(C)(C)C)cc2Cl)c(Cl)c1)OCC(=O)Nc1ccc(/C=C/C(=O)O)cc1 [Compound 4026]"
  IC50: "63 nM"
- molecule: "CC(C)(C#Cc1ccc(NC(=O)CSc2nnnn2-c2ccc(C3CC3)cc2Cl)c(Cl)c1)OCCNC1CC1 [Compound 4117]"
  IC50: "52 nM"

* * *

targetOfAssay: K103NNY181C mutant reverse transcriptase (Human immunodeficiency virus type 1 group M subtype B, UniProt P04585, K690N/Y768C)
Construct: mutations that occur in the reverse transcriptase segment of the pol gene
runDescription: Reverse transcriptase enzymatic assay (PicoGreen), K103N/Y181C mutant RT
Format: biochemical, HIV-1
reportedConditions: IC50 mut, K103N/Y181C mutant reverse transcriptase, enzymatic assay of Example 24
Catalogue of molecules with associated IC50
valueKind: IC50

- structureSmiles: "CC(C)(C#Cc1ccc(NC(=O)CSc2nnnn2-c2cc(C(C)(C)C)cc(Br)c2Cl)c(Cl)c1)C(=O)O"
  measuredResult: "97 nM"
- structureSmiles: "CC(C)(C)c1ccc(-n2nnnc2SCC(=O)Nc2ccc(C#CCN3CCCCC3)cc2Cl)c(Cl)c1"
  measuredResult: "88 nM"
- structureSmiles: "Cc1cc(-n2nnnc2SCC(=O)Nc2ccc(C#CC(C)(C)O)cc2Cl)c(Cl)c(C(F)(F)F)c1"
  measuredResult: "264 nM"
- structureSmiles: "CC(C)(C#Cc1ccc(NC(=O)CSc2nnnn2-c2cc(C(F)(F)F)ccc2Cl)c(Cl)c1)OCCN1CCCC1"
  measuredResult: "50.5 nM"

* * *

targetOfAssay: K103NNY181C mutant reverse transcriptase (Human immunodeficiency virus type 1 group M subtype B, UniProt P04585, K690N/Y768C)
Construct: mutations that occur in the reverse transcriptase segment of the pol gene
runDescription: Reverse transcriptase enzymatic assay (PicoGreen), K103N/Y181C mutant RT
Format: biochemical, HIV-1
reportedConditions: IC50 mut, K103N/Y181C mutant reverse transcriptase, enzymatic assay of Example 24
valueKind: IC50 (nM)

- structureSmiles: "CC(C)(C#Cc1ccc(NC(=O)CSc2nnnn2-c2ccc(C3CC3)cc2Cl)c(Cl)c1)OCCOc1ccncc1"
  measuredResult: 39.5
- structureSmiles: "C=C(C)C#Cc1ccc(NC(=O)CSc2nnnn2-c2ccc(C3CC3)cc2Cl)c(Cl)c1"
  measuredResult: 54
- structureSmiles: "CC(C)(C#Cc1ccc(NC(=O)CSc2nnnn2-c2ccc(C(C)(C)C)cc2Cl)c(Cl)c1F)C(=O)O"
  measuredResult: 15.5
- structureSmiles: "CN1CCN(CC#Cc2ccc(NC(=O)CSc3nnnn3-c3ccc(C(C)(C)C)cc3Cl)c(Cl)c2)CC1"
  measuredResult: 40

From: patent US7517998B2
